# Method Notes: molar heat capacity at constant pressure
# Applied Conditions: 368.2 K; 101.33 kPa; Liquid; Small sample (50 mg) DSC
Readout Kind: molar heat capacity at constant pressure (J/K/mol)
Numeric answer only, unit J/K/mol assumed.

{"Compound": "O=S1(=O)CCCC1", "Units Of Measure": "J/K/mol", "molar heat capacity at constant pressure": 210.9}

Prompt line: Please report the measured molar heat capacity at constant pressure for CCCCn1cc[n+](C)c1.N#CN=C=[N-] [1-butyl-3-methylimidazolium dicyanamide]
Response line: 408.26

Prompt line: Please report the measured molar heat capacity at constant pressure for CCn1cc[n+](C)c1.N#C[C-](C#N)C#N [1-ethyl-3-methyl-1H-imidazolium tricyanomethanide]
Response line: 399.24

Prompt line: Please report the measured molar heat capacity at constant pressure for CCCCn1cc[n+](C)c1.N#C[S-] [1-butyl-3-methylimidazolium thiocyanate]
Response line: 356.72

Prompt line: Please report the measured molar heat capacity at constant pressure for CCn1cc[n+](C)c1.N#C[S-] [1-ethyl-3-methylimidazolium thiocyanate]
Response line: 320.05

Prompt line: Please report the measured molar heat capacity at constant pressure for CCn1cc[n+](C)c1.N#CN=C=[N-] [1-ethyl-3-methylimidazolium dicyanamide]
Response line: 372.49

----------
Measured molar heat capacity at constant pressure, listed per entry.
# Method Notes: molar heat capacity at constant pressure
# Applied Conditions: 320.2 K; 101.33 kPa; Liquid; Small sample (50 mg) DSC
Numeric answer only, unit J/K/mol assumed.

{"Molecule": "CCn1cc[n+](C)c1.N#C[S-] [1-ethyl-3-methylimidazolium thiocyanate]", "Units Of Measure": "J/K/mol", "Recorded Number": 290.6}
{"Molecule": "CCCCn1cc[n+](C)c1.N#C[S-] [1-butyl-3-methylimidazolium thiocyanate]", "Units Of Measure": "J/K/mol", "Recorded Number": 325.55}
{"Molecule": "O=S1(=O)CCCC1", "Units Of Measure": "J/K/mol", "Recorded Number": 185.9}

Prompt line: Please report the measured molar heat capacity at constant pressure for CCCCn1cc[n+](C)c1.N#CN=C=[N-] [1-butyl-3-methylimidazolium dicyanamide]
Response line: 368.65

Prompt line: Please report the measured molar heat capacity at constant pressure for CCn1cc[n+](C)c1.N#C[C-](C#N)C#N [1-ethyl-3-methyl-1H-imidazolium tricyanomethanide]
Response line: 368.85

Prompt line: Please report the measured molar heat capacity at constant pressure for CCn1cc[n+](C)c1.N#CN=C=[N-] [1-ethyl-3-methylimidazolium dicyanamide]
Response line: 335.81

----------
# Method Notes: molar heat capacity at constant pressure
# Applied Conditions: 304.2 K; 101.33 kPa; Liquid; Small sample (50 mg) DSC
Readout Kind: molar heat capacity at constant pressure (J/K/mol)
Numeric answer only, unit J/K/mol assumed.

{"Molecule": "CCn1cc[n+](C)c1.N#CN=C=[N-] [1-ethyl-3-methylimidazolium dicyanamide]", "Recorded Number": 328.01}
{"Molecule": "CCn1cc[n+](C)c1.N#C[C-](C#N)C#N [1-ethyl-3-methyl-1H-imidazolium tricyanomethanide]", "Recorded Number": 362.41}
{"Molecule": "CCCCn1cc[n+](C)c1.N#CN=C=[N-] [1-butyl-3-methylimidazolium dicyanamide]", "Recorded Number": 363.1}
{"Molecule": "CCn1cc[n+](C)c1.N#C[S-] [1-ethyl-3-methylimidazolium thiocyanate]", "Recorded Number": 285.18}

Turning now to a further record.
Prompt line: Please report the measured molar heat capacity at constant pressure for CCCCn1cc[n+](C)c1.N#C[S-] [1-butyl-3-methylimidazolium thiocyanate]
Response line: 320.22

Source: the NIST ThermoML archive (doi:10.1021/je400140n)
